SYSTEM: T1, 4H2389-AA
T1 chain: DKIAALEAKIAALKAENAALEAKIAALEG
PROCEDURE TEXT: two-hybrid library CCmax;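 further: natural log of median RNA to DNA barcode read ratio; higher means stronger binding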
REPORTED CONDITIONS: mean of both orientations
RECORDED METRIC: interaction score
Hey, just send me the number, nothing else.

* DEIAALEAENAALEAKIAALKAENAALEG [4H171-AA] | -1.07

Turning now to a further record.
## Input interaction score lookup needed for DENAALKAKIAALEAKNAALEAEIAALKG [4H1842-AA] , thanks.
## Output -1.52

Attribution: paper PMC10397247
